# reported pIC50; entries follow
Target: T1, 6His-Fc-FGFR1c (human, UniProt P11362 141-376)
T1 construct: not shown: 6His tag and Fc as named in '6His-Fc-FGFR'
T1 sequence: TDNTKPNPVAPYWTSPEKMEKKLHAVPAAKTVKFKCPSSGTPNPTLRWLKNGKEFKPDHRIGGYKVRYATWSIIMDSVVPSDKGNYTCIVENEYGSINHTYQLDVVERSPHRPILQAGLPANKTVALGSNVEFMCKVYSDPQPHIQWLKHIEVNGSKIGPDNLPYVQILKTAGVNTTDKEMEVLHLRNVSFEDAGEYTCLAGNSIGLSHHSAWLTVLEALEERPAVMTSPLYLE
Experiment: competition ELISA, blocks 6His-Fc-FGFR1c binding to coated FGF2
pIC50: −log10 of the molar value.
propertyLabel: pIC50

1) Ab27 (antibody, human IgG2, kappa, V domains shown, format in the assays not spelled out) VH: EVQLLESGGGVVQPGRSLRLSCAASGFTFSSYAMHWVRQAPGKGLEWVAVISYDGSNKYYADSVKGRFTISRDNSKNTLSLQMNSLRVEDTAIYYCVRGAGRGYTLGPDGFDIWGQGTMVTVSS VL: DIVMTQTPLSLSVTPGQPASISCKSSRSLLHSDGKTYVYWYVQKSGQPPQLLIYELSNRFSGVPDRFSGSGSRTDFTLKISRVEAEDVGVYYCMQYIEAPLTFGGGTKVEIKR ... 8.26
2) Ab56 (antibody, human IgG2, kappa, V domains shown, format in the assays not spelled out) VH: EVQLLESGGGVVQPGRSLRLSCAASGFTFSSYAMHWVRQAPGKGLEWVAVISYDGSNKYYADSVKGRFTISRDNSKNTLSLQMNSLRVEDTAIYYCVRGAGMGLTYGPDGFDIWGQGTMVTVSS VL: DIVMTQTPLSLSVTPGQPASISCTSSRSLLHSDGKTYVYWYVQKSGQPPQLLIYELSNRFSGVPDRFSGSGSRTDFTLKISRVEAEDVGVYYCMQYIEAPLTFGGGTKVEIKR ... 8.52
3) Ab63 (antibody, human IgG2, kappa, V domains shown, format in the assays not spelled out) VH: EVQLLESGGGVVQPGRSLRLSCAASGFTFSSYAMHWVRQAPGKGLEWVAVISYDGSNKYYADSVKGRFTISRDNSKNTLSLQMNSLRVEDTAIYYCVRGAGRGYPHGPDGFDIWGQGTMVTVSS VL: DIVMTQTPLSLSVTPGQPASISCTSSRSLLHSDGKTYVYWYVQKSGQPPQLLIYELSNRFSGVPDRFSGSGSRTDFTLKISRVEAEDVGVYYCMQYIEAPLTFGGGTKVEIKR ... 7.91
